Test system: estrogen receptor of rat prostates
assayExplanation: Estrogen receptor binding, rat prostate cytosol, competition with 3H-estradiol
condition: Table 1; rat prostate cytosol, 3H-estradiol, estradiol = 100
reportedMetric: Rat prost. ER (RBA)
Could you respond with only the numeric value?

Form field, Rat prost. ER (RBA) with estrogen receptor of rat prostates, item O=c1c(-c2ccc(O)cc2)coc2cc(O)cc(O)c12 [Genisteine, reference compound] : 10

I looked up C[C@]12CCC3c4ccc(O)cc4CCC3C1CCC2=O (some centres unmarked) [Estrone, reference compound] and its Rat prost. ER (RBA) for estrogen receptor of rat prostates was 2

Reported estrogen receptor of rat prostates Rat prost. ER (RBA) for item C[C@]12CC[C@H]3[C@@H](CC=C4C[C@@H](O)CC[C@@]43C)[C@@H]1CC[C@@H]2O [5-androstenediol, reference compound] was 5

The compound C[C@]12CCC3c4ccc(O)cc4CCC3C1CC[C@@H]2O (some centres unmarked) [Estradiol, reference compound] on estrogen receptor of rat prostates: Rat prost. ER (RBA) was 100

Record C[C@]12CCC3c4ccc(O)cc4CCC3C1CC[C@@H]2O (stereo partly drawn) [17α-Estradiol, reference compound] ; system estrogen receptor of rat prostates; Rat prost. ER (RBA) = 1.3
